Documented exchange rate vs Pos peptide across a set of binders
- ASSAY SYSTEM: T1, HLA-B*08:01 (human, biotinylated heavy chain)
- T1 construct: Conditional HLA class I complex first loaded with a UV-labile peptide, exchanged for the test peptide after UV; also called conditional HLA class I complex
- ASSAY METHOD TEXT: UV peptide exchange + HLA class I ELISA
The response must be a number in % with no trailing unit.

BINDER: FFKRAAEGF [P77 9-mer peptide (AR-V3 splice variant)]
OBSERVED VALUE: 3.4
//
BINDER: STRRAVRRM (Synthetic 9-mer fragment) [P16 9-mer peptide (MSMB-NCOA4 fusion)]
OBSERVED VALUE: 6.2
//
BINDER: NMVENGCYL [P59 9-mer peptide (FOXA1 (F254V))]
OBSERVED VALUE: 5.5

So what's the measured exchange rate vs Pos peptide for this one? IQYSCMGLM [P50 9-mer peptide (AR (W742C))] 4.7

The reported measurements were obtained from patent US20200222478A1.
